# target.desc: NRAS WT (Homo sapiens, UniProt P01111+P62937)
# Sequence (P01111 whole entry): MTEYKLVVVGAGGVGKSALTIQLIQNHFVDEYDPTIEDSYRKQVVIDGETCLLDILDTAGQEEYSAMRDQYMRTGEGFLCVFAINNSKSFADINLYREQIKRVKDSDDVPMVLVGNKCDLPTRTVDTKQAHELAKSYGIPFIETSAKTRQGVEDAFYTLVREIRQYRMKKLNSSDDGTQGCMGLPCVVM
# Sequence (P62937 whole entry): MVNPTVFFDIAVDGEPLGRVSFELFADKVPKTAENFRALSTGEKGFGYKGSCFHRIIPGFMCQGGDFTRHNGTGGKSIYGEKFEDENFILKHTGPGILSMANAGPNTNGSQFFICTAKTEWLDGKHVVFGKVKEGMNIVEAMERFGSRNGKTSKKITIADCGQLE
# experimental.protocol: Disruption of BRAF RBD interaction with Ras (FRET / MOA assay, with Cyclophilin A)
# Format: biochemical
# test.context: NRAS WT; read-out: NRAS WT FRET data IC50
reported.metric: IC50

1) CCn1c(-c2cccnc2[C@H](C)OC)c2c3cc(ccc31)-c1cc(O)cc(c1)C[C@H](NC(=O)[C@H](C(C)C)N(C)C(=O)C1CCC(C3CCCO3)O1)C(=O)N1CCC[C@H](N1)C(=O)OCC(C)(C)C2 (stereo partly drawn): 10 to 100 nM
2) CCn1c(-c2cccnc2[C@H](C)OC)c2c3cc(ccc31)-c1csc(n1)C[C@H](NC(=O)[C@H](C(C)C)N(C)C(=O)N1CCC(C(=O)C(F)(F)F)CC1)C(=O)N1CCC[C@H](N1)C(=O)OCC(C)(C)C2: 10 to 100 nM

Kindly review the next compound as well.
For record "CCn1c(-c2cccnc2[C@H](C)OC)c2c3cc(ccc31)-c1cc(O)cc(c1)C[C@H](NC(=O)[C@@H]1[C@H](C)CCN1C(C)=O)C(=O)N1CCC[C@H](N1)C(=O)OCC(C)(C)C2" the listed IC50 is 100 to 1000 nM

* * *

Consider the following compounds; for each one, report its pIC50.
# target.desc: KRAS WT (Homo sapiens, UniProt P01116+P62937)
# Sequence (P01116 1-169 isoform P01116-2 limits assumed): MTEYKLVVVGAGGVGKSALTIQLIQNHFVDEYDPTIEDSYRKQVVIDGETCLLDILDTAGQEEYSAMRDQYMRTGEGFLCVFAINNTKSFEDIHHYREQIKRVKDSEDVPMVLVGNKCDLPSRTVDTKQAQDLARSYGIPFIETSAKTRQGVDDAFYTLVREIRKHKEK
# Sequence (P62937 whole entry): as the sequence (P62937 whole entry) above
# experimental.protocol: Disruption of BRAF RBD interaction with Ras (FRET / MOA assay, with Cyclophilin A)
# Format: biochemical
# test.context: KRAS WT; read-out: KRAS WT FRET data IC50
pIC50: −log10 of the molar value.

Consider the reported pIC50 for these compounds:
1. CCn1c(-c2cccnc2[C@H](C)OC)c2c3cc(ccc31)-c1cccc(c1)C[C@H](NC(=O)[C@H](C(C)C)N(C)C(=O)[C@@H]1CCN(C(=O)C#CC(C)(C)N3CCC3)C1)C(=O)N1CCC[C@H](N1)C(=O)OCC(C)(C)C2: 5.00 to 6.00
2. C=CC(=O)N1CC[C@H](C(=O)N(C)[C@H](C(=O)N[C@H]2Cc3cc(O)cc(c3)-c3cnc4c(c3)c(c(-c3ccccc3CCOC)n4CC)CC(C)(C)COC(=O)[C@@H]3CCCN(N3)C2=O)C(C)C)C1: < 5.00
3. CCn1c(-c2cnccc2COC)c2c3cc(ccc31)-c1cc(O)cc(c1)C[C@H](NC(=O)[C@H](C(C)C)N(C)C(=O)[C@@H]1CCCO1)C(=O)N1CCC[C@H](N1)C(=O)OCC(C)(C)C2: 6.00 to 7.00
4. CCn1c(-c2cccnc2[C@H](C)OC)c2c3cc(ccc31)-c1csc(n1)C[C@H](NC(=O)[C@H](C(C)C)N(C)C(=O)N1C[C@H](C)N(C)C[C@@H]1C)C(=O)N1CCC[C@H](N1)C(=O)OCC(C)(C)C2: 6.00 to 7.00
5. C=CC(=O)N1CC[C@@H](N(C)C(=O)N(C)[C@H](C(=O)N[C@H]2Cc3nc(cs3)-c3ccc4c(c3)c(c(-c3cccnc3[C@H](C)OC)n4CC)CC(C)(C)COC(=O)[C@@H]3CCCN(N3)C2=O)C(C)C)C1: 6.00 to 7.00

Field: pIC50. Fill in for each record below.
1. CCn1c(-c2cccnc2[C@H](C)OC)c2c3cc(ccc31)-c1cc(O)cc(c1)C[C@H](NC(=O)[C@H](C(C)C)N(C)C(=O)C1NCCC13CC3)C(=O)N1CCC[C@H](N1)C(=O)OCC(C)(C)C2 (some centres unmarked)
2. CCn1c(-c2cccnc2[C@H](C)OC)c2c3cc(ccc31)-c1csc(n1)C[C@H](NC(=O)[C@H](C(C)C)N(C)C(=O)N1CC(n3nc(C)cc3C)C1)C(=O)N1CCC[C@H](N1)C(=O)OCC(C)(C)C2

Reply:
1: 7.00 to 8.00; 2: 6.00 to 7.00

For record CCn1c(-c2cccnc2[C@H](C)OC)c2c3cc(ccc31)-c1csc(n1)C[C@H](NC(=O)[C@H](C(C)C)N(C)C(=O)N1CC(N(C)S(C)(=O)=O)C1)C(=O)N1CCC[C@H](N1)C(=O)OCC(C)(C)C2 (atropisomer, axis not shown) the listed pIC50 is 6.00 to 7.00
